# Method Notes: Solubility of the compound in water at 1 mM
# Type: physicochemical
# Conditions Used: buffer, 1000 µM
Metric: solubility

1. CC[C@H](C)[C@@H]1NC(=O)[C@@H]2CCCN2C(=O)[C@H](Cc2c[nH]c3ccccc23)N(C)C(=O)[C@H](CCCNC(=N)N)N(C)C(=O)[C@@H](Cc2ccccc2)NC(=O)[C@H](Cc2cnc[nH]2)N(C)C(=O)[C@H]([C@@H](C)O)NC(=O)[C@@H]2CSSC[C@H](NC1=O)C(=O)N[C@@H](Cc1ccccc1)C(=O)N1CCC[C@H]1C(=O)N[C@@H](CC(=O)O)C(=O)NCC(=O)N[C@@H](CCCNC(=N)N)C(=O)N2 ... Soluble
2. CC[C@H](C)[C@@H]1NC(=O)[C@@H]2CCCN2C(=O)[C@H](Cc2c[nH]c3ccccc23)NC(=O)[C@H](CCCNC(=N)N)NC(=O)[C@@H](Cc2ccccc2)NC(=O)[C@H](Cc2cnc[nH]2)NC(=O)[C@H]([C@@H](C)O)NC(=O)[C@@H]2CSSC[C@H](NC1=O)C(=O)N[C@@H](Cc1ccccc1)C(=O)N1CCC[C@H]1C(=O)N[C@@H](CC(=O)O)C(=O)NCC(=O)N[C@@H](CCCNC(=N)N)C(=O)N2 ... Soluble
3. CC[C@H](C)[C@@H]1NC(=O)[C@@H]2CCCN2C(=O)[C@@H]2CCCN2C(=O)[C@H]([C@@H](C)CC)NC(=O)[C@H](CO)NC(=O)[C@H](C)NC(=O)[C@H]([C@@H](C)O)NC(=O)[C@@H]2CSSC[C@H](NC1=O)C(=O)N[C@@H](Cc1cnc[nH]1)C(=O)N[C@H](Cc1ccccc1)C(=O)N[C@@H](CCCNC(=N)N)C(=O)N[C@@H](Cc1c[nH]c3ccccc13)C(=O)N[C@@H](CCCNC(=N)N)C(=O)N2 ... Soluble
